- measured.on: T1, CH2-4 constant domains of human IgE linked to a transmembrane protein, on 293 cells (human, UniProt P01854-1 104-428)
- T1 construct: domain: CH2-4 constant domains; also called human IgE-expressing 293 cells
- protocol: flow cytometry, 293 cells expressing human IgE CH2-4
# Kd per entry
metric.name: Kd (nM)

[[record]]
binder = "hzB10v21-NNT (Fc fusion, monomeric) VHH-Fc: EVQLLESGGGEVQPGGSLRLSCVASGLTFSSYNMGWLRQAPGKEREFVGLSGSSSTSTYYADSVKGRFTISRDNSKNTVYLQMSSLKPEDTAVYYCAARRLLSTYWSDRSWDFWGQGTQVTVEPGGPSVFLFPPKPKDTLMISRTPEVTCVVVDVSHEDPEVKFNWYVDGVEVHNAKTKPREEQYNSTYRVVSVLTVLHQDWLNGKEYKCKVSNKALPAPIEKTISKAKGQPREPQVYTLPPSRDELTKNQVNLTCLVKGFYPSDIAVEWESNGQPENNYKTTPPVLDSDGSFFLNSTLTVDKSRWQQGNVFSCSVMHEALHNHYTQKSLSLSPGK"
metric_name = "Kd"
unit_of_measure = "nM"
reported_value = 6.4

[[record]]
binder = "B10-NNT (Fc fusion, monomeric; also called parental B10 monomeric VHH-hIgG1-Fc fusion (Fc NNT)) VHH-Fc: EVQLVQSGGELVQAGGSLRLSCVASGLTFSSYNMGWLRQAPGKEREFVGMSGSSSTSTYYADSVKGRFTISRDNSKNTVYLQMNSLKPEDTAVYYCAARRMLSTYWSDRSWDFWGQGTQVTVKPGGPSVFLFPPKPKDTLMISRTPEVTCVVVDVSHEDPEVKFNWYVDGVEVHNAKTKPREEQYNSTYRVVSVLTVLHQDWLNGKEYKCKVSNKALPAPIEKTISKAKGQPREPQVYTLPPSRDELTKNQVNLTCLVKGFYPSDIAVEWESNGQPENNYKTTPPVLDSDGSFFLNSTLTVDKSRWQQGNVFSCSVMHEALHNHYTQKSLSLSPGK"
metric_name = "Kd"
unit_of_measure = "nM"
reported_value = 1.82


Origin of measurements: patent US20250163186A1
